Biological target: human TGR5 receptor (Homo sapiens)
Sequence (Q8TDU6 1-330): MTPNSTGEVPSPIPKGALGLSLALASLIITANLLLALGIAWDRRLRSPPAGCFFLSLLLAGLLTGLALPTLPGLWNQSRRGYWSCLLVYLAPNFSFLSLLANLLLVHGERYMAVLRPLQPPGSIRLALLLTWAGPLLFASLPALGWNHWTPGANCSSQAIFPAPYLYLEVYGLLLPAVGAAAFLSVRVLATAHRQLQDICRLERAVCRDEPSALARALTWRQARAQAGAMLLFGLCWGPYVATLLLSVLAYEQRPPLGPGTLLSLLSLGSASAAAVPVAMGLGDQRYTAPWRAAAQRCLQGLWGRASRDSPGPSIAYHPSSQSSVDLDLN
Assay: Human TGR5 cAMP production assay
Details: human TGR5, luminescent cAMP assay; coded A-D; read-out: Human TGR5 Lum. cAMP Activity (EC50)
Reported Property: EC50

Incoming: What EC50 value was documented for this molecule, `COc1cnccc1-c1cccc(CCNS(=O)(=O)c2ccccc2C(F)(F)F)c1` ?
Outgoing: 100 to 999 nM

Incoming: What EC50 value was documented for this molecule, `Cc1cnccc1-c1cccc(C(C)(C)N(CCCC(=O)O)S(=O)(=O)c2ccccc2C(F)(F)F)c1` ?
Outgoing: < 100 nM

Incoming: What EC50 value was documented for this molecule, `COc1cnccc1-c1cccc(C(C)(C)NS(=O)(=O)c2cc(Cl)ccc2[N+](=O)[O-])c1` ?
Outgoing: < 100 nM

Incoming: What EC50 value was documented for this molecule, `C[C@H](NS(=O)(=O)c1cccc(C(F)(F)F)c1)c1cccc(-c2ccncc2Cl)c1` ?
Outgoing: 100 to 999 nM

Incoming: What EC50 value was documented for this molecule, Cc1cnccc1-c1cccc(C(C)N(CCCC(=O)NCCSO)S(=O)(=O)c2cccc(C(F)(F)F)c2)c1 (stereo not drawn) [Compound 20BD] ?
Outgoing: 100 to 999 nM

Incoming: What EC50 value was documented for this molecule, `Cc1ccccc1S(=O)(=O)NCc1cccc(-c2ccncc2)c1` ?
Outgoing: 1000 to 30000 nM

Incoming: What EC50 value was documented for this molecule, CCc1cnccc1-c1cccc([C@H](C)N(CCCC(=O)O)S(=O)(=O)c2ccccc2C(F)(F)F)c1 [Compound 15AB] ?
Outgoing: < 100 nM

Incoming: What EC50 value was documented for this molecule, `Cc1cnccc1-c1cccc(C(C)(C)N(CCCN/C(=N\C#N)NCCC(=O)O)S(=O)(=O)c2cccc(Cl)c2C)c1` ?
Outgoing: < 100 nM

Incoming: What EC50 value was documented for this molecule, `Cc1cnccc1-c1cccc([C@H](C)NS(=O)(=O)c2cccc(C(F)(F)F)c2)c1` ?
Outgoing: < 100 nM

Incoming: What EC50 value was documented for this molecule, COc1cnccc1-c1cccc(C2CCCN2S(=O)(=O)c2ccccc2C(F)(F)F)c1 (stereo not drawn) [Compound 40AA] ?
Outgoing: < 100 nM

Incoming: What EC50 value was documented for this molecule, Cc1cnccc1-c1cccc([C@H](C)N(CCCC(=O)NC[C@@H](O)[C@H](O)[C@@H](O)[C@@H](O)CO)S(=O)(=O)c2cccc(Cl)c2C)c1 [Compound 20AK] ?
Outgoing: < 100 nM

Incoming: What EC50 value was documented for this molecule, Cc1cnccc1-c1cccc(C2CN(C(=O)OC(C)(C)C)CCN2S(=O)(=O)c2ccccc2C(F)(F)F)c1 (racemic) ?
Outgoing: 1000 to 30000 nM

Incoming: What EC50 value was documented for this molecule, `CC(C)(NS(=O)(=O)c1cccc(C(F)(F)F)c1)c1cccc(-c2ccncc2F)c1` ?
Outgoing: < 100 nM

Incoming: What EC50 value was documented for this molecule, Cc1cnccc1-c1cccc(C2CN(C(=O)CCC(=O)O)CCN2S(=O)(=O)c2cccc(Cl)c2C)c1 (stereo not drawn) [Compound 46AD] ?
Outgoing: 100 to 999 nM

Incoming: What EC50 value was documented for this molecule, Cc1cnccc1-c1cccc([C@H](C)N(CCCC(=O)NCCS(=O)(=O)NCCCC(=O)O)S(=O)(=O)c2ccccc2C(F)(F)F)c1 [Compound 20BK] ?
Outgoing: < 100 nM
